assay: Maximum tolerated dose, intravenous administration to nude mice; settings: mouse, in vivo, i.v., q4d×3, nude mice
reported metric: MTD (mg/kg/day)
Please respond with the number in mg/kg/day and leave the unit unwritten.

Please supply the value of reported MTD for the item C/C=C1\NC(=O)[C@H]2CSSCC/C=C/[C@H](CC(=O)N[C@H](C(C)C)C(=O)N2)OC(=O)[C@H](C(C)C)NC1=O
3.2

---

experiment: Maximum tolerated dose, intravenous administration to nude mice; conditions: mouse, in vivo, 24 mg/kg, i.v., qd×5, nude mice
reported metric: MTD at 5 days
# answer = value followed by unit

Please supply the value of reported MTD at 5 days for the item CC(=O)O[C@H]1C(=O)[C@@]2(C)[C@H]([C@H](OC(=O)c3ccccc3)[C@]3(O)C[C@H](OC(=O)[C@H](O)[C@@H](NC(=O)c4ccccc4)c4ccccc4)C(C)=C1C3(C)C)[C@]1(OC(C)=O)CO[C@@H]1C[C@@H]2O [Paclitaxel, reference compound]
24 mg/kg/day
